// provenance: PubChem BioAssay (NCI)

System: SNB-75 CNS
procedure_text: NCI tumour cell line growth inhibition, 48 h
compounds and their reported TGI

Worked set:
- compound: "O=C(Nc1n[nH]c2nc(-c3ccco3)c(Br)cc12)C1CC1"
  recorded_result: "> 25 µM"
- compound: "O=C1C(C(O)(C(F)(F)Cl)C(F)(F)Cl)CCC1C(O)(C(F)(F)Cl)C(F)(F)Cl (stereo not given)"
  recorded_result: "> 10 µM"

Notebook: CC(C)C1CC=NN1C(=O)OC(C)(C)C (stereo not given) , TGI read as > 100 µM

Notebook: O=C1/C(=C\c2ccc([N+](=O)[O-])cc2)Sc2scc(-c3ccc(O)c(O)c3)[n+]21 , TGI read as 25.9 µM

Notebook: N[C@H]1C2C3CC4C5CC(C42)C1(c1ccccc1)C53 (stereo not given in full) , TGI read as > 100 µM

Notebook: COc1ccc(-c2oc3cc(O)c(OC)c(O)c3c(=O)c2OC2OC(CO)C(O)C(O)C2O)cc1 (stereo not given) , TGI read as > 100 µM

Notebook: COc1cc2c(cc1OC)C(=O)C(Br)CC2 (stereo not given) , TGI read as 18.9 µM

Notebook: COc1cc2cc(Oc3ccc(NC(=O)Nc4ccc(F)c(C(F)(F)F)c4)cc3)c(C)nc2cc1OCCN1CCCCC1 , TGI read as 2.6 µM

Notebook: CCOC(=O)Cc1c(Cc2[nH]c(C(=O)OCc3ccccc3)c(CC(=O)OCC)c2CC(=O)OCC)[nH]c(C(=O)OCc2ccccc2)c1CC(=O)OCC , TGI read as > 100 µM

Notebook: COc1cc(C(=O)O)c([N+](=O)[O-])c(OC)c1OC , TGI read as > 100 µM

Notebook: O=c1[nH]c2cc(C(F)(F)F)ccc2nc1Cc1ccccc1 , TGI read as > 100 µM

Notebook: Cn1ncc2cc3c(Nc4ccc(Cl)cc4)cccc3nc21 , TGI read as > 100 µM
